Study System: Estrogen receptor (Homo sapiens)
Assay Explanation: OT_ER_ERaERa_0480: Odyssey Thera (OT) 8-hour HEK293T Protein-Complementation Assay for Estrogen Receptor-alpha/-alpha Homodimer (AID 2283351);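 note: rise in fluorescence from reassembled reporter fragments on ERα LBD homodimer in nucleus or whole cell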
Results filed as inconclusive are left out. The source made the active and inactive calls. Rule for the calls: active = hit-call score of the fitted dose curve at least 0.9, where 1 is the maximum; inconclusive = response in the unintended direction; inactive = score below 0.9.
Outcomes: active, inactive

Molecule: CC(C)(C)c1csc(-c2cc3cc(OCc4ccccc4CC(=O)O)ccc3o2)n1
Class Label: inactive
//
Molecule: CN1C(=O)N(c2ccccc2Br)Cc2cnc(Nc3ccc4c(c3)OCC(CO)O4)nc21 (stereo unspecified)
Class Label: inactive
//
Molecule: c1ccc(C[n+]2cccc3ccccc32)cc1
Class Label: inactive
//
Molecule: O=c1ccc2ccccc2o1
Class Label: inactive
//
Molecule: Cc1c2ccccc2c(C)c2c1ccc1ccccc12
Class Label: inactive
//
Molecule: Clc1ccccc1C(c1ccccc1)(c1ccccc1)n1ccnc1
Class Label: inactive
//
Molecule: OC12N=C(c3ccccc3)SC1Cc1cc(Cl)ccc12 (stereo unspecified)
Class Label: inactive
//
Molecule: Cc1occc1C(=O)Nc1ccc(C(=O)N2CCC(F)(F)/C(=C\C(=O)N3CCC(N4CCCCC4)CC3)c3ccccc32)cc1
Class Label: active
//
Molecule: CCCOC(=O)c1cc(O)c(O)c(O)c1
Class Label: active
//
Molecule: CCCCCCCCOc1ccc(C(=O)c2ccccc2)c(O)c1
Class Label: inactive
//
Molecule: NC(=O)c1nc(-c2cccc(-c3cc(F)ccc3OCC(F)(F)C(F)(F)F)c2)n[nH]1
Class Label: inactive
